Target Desc: recombinant human ACC1 (rhACC1) (Homo sapiens (Human))
Protocol Notes: recombinant hACC1 Transcreener ADP detection FP assay
Experimental Conditions: 50 μM ATP, 120 min at 25° C.
pIC50: −log10 of the molar value.
Quantity Measured: pIC50

In the examples that follow, each entry is paired with its recorded pIC50.
>>> result_number("CNc1ccc2cc(C(=O)N3CCC4(CC3)Cc3cn(C(C)(C)C)nc3C(=O)N4)ccc2n1")
6.73
>>> result_number("CNc1cc2cc(C(=O)N3CCC4(CC3)Cc3cn(C(C)(C)C)nc3C(=O)N4)ccc2cn1")
7.32
>>> result_number("CC(C)(C)n1cc2c(n1)C(=O)NC1(CCN(C(=O)c3ccc4[nH]nc(C#N)c4c3)CC1)C2")
7.37
>>> result_number("CC(C)n1ncc2c1C(=O)NC1(CCN(C(=O)c3ccc4[nH]nc(C#N)c4c3)CC1)C2")
6.59

(1) CC(C)(C)n1cc2c(n1)C(=O)NC1(CCN(C(=O)c3ccc4ccc(NC5CC5)nc4c3)CC1)C2
(2) Cc1nc2cc(C(=O)N3CCC4(CC3)Cc3cnn(C(C)C)c3C(=O)N4)ccc2[nH]1
Incoming: Given the listed items, does 1 or 2 have the lesser reported pIC50? # answer = label of selected item
Outgoing: 2
